- MEASURED TARGET: recombinant soluble homotrimeric HA of A/Wisconsin/67/05 (H3N2) (Influenza A virus A/Wisconsin/67/2005 (H3N2))
- PROTOCOL SUMMARY: HA microarray, BCC supernatant
- CONDITIONS: remark: other sources report otherwise
Tick TRUE if Trimeric HA Binding RLU is 1000 RLU or greater. Tick FALSE if Trimeric HA Binding RLU is less than 1000 RLU.

Here's what some known entries look like.
Decide: Trimeric HA Binding RLU of TCN-528 (5087_P17) (antibody, V domains shown) VH: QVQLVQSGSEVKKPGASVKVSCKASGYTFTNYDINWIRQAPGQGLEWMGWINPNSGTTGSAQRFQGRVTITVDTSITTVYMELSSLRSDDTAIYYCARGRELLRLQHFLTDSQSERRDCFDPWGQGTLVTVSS VL: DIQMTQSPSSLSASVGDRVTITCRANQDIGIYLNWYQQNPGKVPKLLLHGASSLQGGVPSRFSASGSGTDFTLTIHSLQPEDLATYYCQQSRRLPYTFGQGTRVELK >= 1000 RLU?
TRUE

Decide: Trimeric HA Binding RLU of TCN-540 (5060_F05) (antibody, V domains shown) VH: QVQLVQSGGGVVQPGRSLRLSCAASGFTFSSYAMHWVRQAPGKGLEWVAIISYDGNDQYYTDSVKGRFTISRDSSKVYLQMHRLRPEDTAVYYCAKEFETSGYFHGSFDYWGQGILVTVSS VL: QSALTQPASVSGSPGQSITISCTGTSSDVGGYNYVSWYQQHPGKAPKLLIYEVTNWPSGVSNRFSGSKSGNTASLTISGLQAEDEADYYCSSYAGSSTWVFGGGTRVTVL >= 1000 RLU?
FALSE

Decide: Trimeric HA Binding RLU of TCN-536 (5095_N01) (antibody, V domains shown) VH: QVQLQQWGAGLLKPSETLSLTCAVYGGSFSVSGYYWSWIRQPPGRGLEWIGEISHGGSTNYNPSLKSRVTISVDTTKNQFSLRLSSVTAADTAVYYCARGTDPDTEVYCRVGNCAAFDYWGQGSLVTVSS VL: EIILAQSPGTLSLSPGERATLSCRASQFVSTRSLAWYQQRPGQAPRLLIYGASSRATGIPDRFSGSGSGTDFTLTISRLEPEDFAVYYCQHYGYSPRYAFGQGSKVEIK >= 1000 RLU?
TRUE

---
Decide: Trimeric HA Binding RLU of TCN-563 (5237_B21) (antibody, V domains shown) VH: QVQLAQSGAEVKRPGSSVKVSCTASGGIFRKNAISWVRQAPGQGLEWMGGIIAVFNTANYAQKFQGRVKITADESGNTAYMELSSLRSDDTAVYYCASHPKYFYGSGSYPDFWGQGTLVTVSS VL: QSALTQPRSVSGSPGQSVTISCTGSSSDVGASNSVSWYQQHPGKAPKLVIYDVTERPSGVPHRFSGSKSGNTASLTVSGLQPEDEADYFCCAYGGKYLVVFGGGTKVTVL >= 1000 RLU?
TRUE

Decide: Trimeric HA Binding RLU of TCN-543 (5081_G23) (antibody, V domains shown) VH: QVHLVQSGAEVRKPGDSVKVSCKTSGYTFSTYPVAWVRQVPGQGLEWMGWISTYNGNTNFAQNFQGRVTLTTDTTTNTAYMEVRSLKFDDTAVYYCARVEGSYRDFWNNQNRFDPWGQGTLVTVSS VL: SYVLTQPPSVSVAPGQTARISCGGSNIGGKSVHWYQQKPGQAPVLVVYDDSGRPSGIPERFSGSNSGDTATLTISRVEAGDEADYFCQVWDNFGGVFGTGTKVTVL >= 1000 RLU?
TRUE
